# STUDY SYSTEM: DRB1*1501 (DR2w2β1) (human)
# Sequence (chain, as listed by the source, chain 1 of 2): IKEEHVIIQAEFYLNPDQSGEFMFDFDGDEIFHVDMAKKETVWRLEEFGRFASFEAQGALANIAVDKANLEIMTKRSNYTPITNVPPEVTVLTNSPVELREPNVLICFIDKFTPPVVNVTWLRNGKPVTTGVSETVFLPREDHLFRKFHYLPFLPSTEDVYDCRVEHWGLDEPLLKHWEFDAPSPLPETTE
# Sequence (chain, as listed by the source, chain 2 of 2): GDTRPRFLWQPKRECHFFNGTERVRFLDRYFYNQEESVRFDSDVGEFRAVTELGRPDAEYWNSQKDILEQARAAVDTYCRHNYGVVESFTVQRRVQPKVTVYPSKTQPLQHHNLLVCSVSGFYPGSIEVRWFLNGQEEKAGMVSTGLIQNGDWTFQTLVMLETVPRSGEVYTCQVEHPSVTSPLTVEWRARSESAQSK
# PROTOCOL TEXT: binding to purified HLA
pIC50: −log10 of the molar value.
// values below are reported pIC50
RECORDED ENDPOINT: pIC50

binder="NGIEWAIANNMDVIN [BPN' Y217L .109]" assay_result=6.17
binder="GSISYPARYANAMAV [B. lentus 157]" assay_result=6.06
binder="GTVAALNNSIGVLGV [BPN' Y217L .70]" assay_result=7.68
